B1: PDS5B (parent)
chain: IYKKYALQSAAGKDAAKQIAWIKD

# Variants of: B1
# method: protein stability index of a GFP-peptide fusion (GPS, HEK-293T) (PSI 1-6); higher = more stable;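 note: lentivirally expressed fusions sorted by FACS into six bins by GFP to DsRed ratio, PSI derived from sequencing read proportions per bin multiplied by bin number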
# condition_notes: c terminus: a fixed tail appended
readout_type: protein stability index
// print number alone

Below, each entry is followed by its recorded protein stability index result.
Would you kindly share the measured protein stability index for `Q18L` ? 1.99

Param item = `K23M` ; retrieve measured protein stability index. 2

What measured protein stability index goes with `D24A` ? 2

---
Which protein stability index reading was recorded for the variant `S9F` ? 2
